Origin of values: patent US10259810B2

# study.system: ΔF508-CFTR (Homo sapiens, UniProt P13569, DEL508-508)
# Construct: host or cells: CFBE41o-, doxycycline-inducible
# Sequence (P13569 with tags, fused parts or gaps DEL508-508): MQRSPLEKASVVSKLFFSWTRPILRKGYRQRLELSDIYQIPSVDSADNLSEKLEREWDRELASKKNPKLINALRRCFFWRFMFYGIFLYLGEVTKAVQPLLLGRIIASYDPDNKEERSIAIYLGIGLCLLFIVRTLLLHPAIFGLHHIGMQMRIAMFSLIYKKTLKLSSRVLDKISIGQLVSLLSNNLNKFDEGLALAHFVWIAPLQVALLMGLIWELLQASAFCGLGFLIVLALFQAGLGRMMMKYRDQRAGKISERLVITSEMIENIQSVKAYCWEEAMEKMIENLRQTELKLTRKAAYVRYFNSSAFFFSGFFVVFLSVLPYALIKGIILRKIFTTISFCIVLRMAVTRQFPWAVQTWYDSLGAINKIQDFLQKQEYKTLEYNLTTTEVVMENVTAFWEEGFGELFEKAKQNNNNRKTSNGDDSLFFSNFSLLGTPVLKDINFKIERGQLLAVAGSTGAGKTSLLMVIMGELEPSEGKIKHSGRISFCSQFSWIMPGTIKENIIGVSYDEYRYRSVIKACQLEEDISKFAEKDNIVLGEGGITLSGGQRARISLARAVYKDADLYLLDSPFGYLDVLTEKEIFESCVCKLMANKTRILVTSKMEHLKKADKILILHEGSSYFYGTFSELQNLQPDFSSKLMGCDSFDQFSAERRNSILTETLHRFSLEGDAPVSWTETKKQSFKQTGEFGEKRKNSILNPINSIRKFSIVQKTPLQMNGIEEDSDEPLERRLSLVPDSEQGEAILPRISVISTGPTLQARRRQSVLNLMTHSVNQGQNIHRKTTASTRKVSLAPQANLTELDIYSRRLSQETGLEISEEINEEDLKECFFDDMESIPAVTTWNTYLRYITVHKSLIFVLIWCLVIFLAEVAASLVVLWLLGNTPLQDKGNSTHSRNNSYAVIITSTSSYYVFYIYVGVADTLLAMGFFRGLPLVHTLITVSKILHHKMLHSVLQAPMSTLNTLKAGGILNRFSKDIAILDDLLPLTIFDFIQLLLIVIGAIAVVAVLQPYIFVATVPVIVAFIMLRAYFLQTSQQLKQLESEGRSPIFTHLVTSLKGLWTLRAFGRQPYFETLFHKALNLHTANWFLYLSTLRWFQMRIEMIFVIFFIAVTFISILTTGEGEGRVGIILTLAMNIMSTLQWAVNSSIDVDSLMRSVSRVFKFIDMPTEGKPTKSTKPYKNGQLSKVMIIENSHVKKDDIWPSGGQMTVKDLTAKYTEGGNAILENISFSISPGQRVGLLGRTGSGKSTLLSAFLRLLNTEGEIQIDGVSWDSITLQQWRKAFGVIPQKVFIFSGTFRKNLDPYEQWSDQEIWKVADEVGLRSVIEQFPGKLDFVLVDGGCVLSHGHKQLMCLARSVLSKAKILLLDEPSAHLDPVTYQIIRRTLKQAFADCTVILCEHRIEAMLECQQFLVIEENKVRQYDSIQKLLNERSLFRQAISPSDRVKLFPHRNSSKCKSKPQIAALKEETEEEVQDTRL
# protocol.summary: CFTR cell surface levels using HRP-tagged ΔF508-CFTR expressing CFBE cells, in the presence of a co-corrector
# Type: cell-based
# condition.details: HRP-tagged ΔF508-CFTR CFBE cells, in the presence of 3 μM co-corrector; read-out: EC50
pEC50: −log10 of the molar value.
readout.label: pEC50

compound: COC1(C)CCN(c2cc(C(=O)NS(C)(=O)=O)nc3c2c(C(C)C)nn3-c2ccc(F)cc2)CC1
readout.label: pEC50
reported.value: 6.36

compound: COCCS(=O)(=O)NC(=O)c1cc(-c2ccc(N3CCOCC3)cc2)c2c(C(C)C)nn(C3CCOC3)c2n1 (stereo not shown)
readout.label: pEC50
reported.value: 5.76

compound: Cc1nn(-c2ccccc2)c2nc(C(=O)NS(C)(=O)=O)cc(-c3ccc(N4CCC(N(C)C)C4)cc3)c12 (stereo not shown)
readout.label: pEC50
reported.value: 5.49

compound: CC(=O)N1CCC2CN(c3cc(C(=O)NS(C)(=O)=O)nc4c3c(C3CCC3)nn4-c3ccccc3)CCC21 (stereo not shown)
readout.label: pEC50
reported.value: 6.52
